Molecular target: wild-type EGFR (Homo sapiens, UniProt P00533)
Sequence (P00533 25-1210): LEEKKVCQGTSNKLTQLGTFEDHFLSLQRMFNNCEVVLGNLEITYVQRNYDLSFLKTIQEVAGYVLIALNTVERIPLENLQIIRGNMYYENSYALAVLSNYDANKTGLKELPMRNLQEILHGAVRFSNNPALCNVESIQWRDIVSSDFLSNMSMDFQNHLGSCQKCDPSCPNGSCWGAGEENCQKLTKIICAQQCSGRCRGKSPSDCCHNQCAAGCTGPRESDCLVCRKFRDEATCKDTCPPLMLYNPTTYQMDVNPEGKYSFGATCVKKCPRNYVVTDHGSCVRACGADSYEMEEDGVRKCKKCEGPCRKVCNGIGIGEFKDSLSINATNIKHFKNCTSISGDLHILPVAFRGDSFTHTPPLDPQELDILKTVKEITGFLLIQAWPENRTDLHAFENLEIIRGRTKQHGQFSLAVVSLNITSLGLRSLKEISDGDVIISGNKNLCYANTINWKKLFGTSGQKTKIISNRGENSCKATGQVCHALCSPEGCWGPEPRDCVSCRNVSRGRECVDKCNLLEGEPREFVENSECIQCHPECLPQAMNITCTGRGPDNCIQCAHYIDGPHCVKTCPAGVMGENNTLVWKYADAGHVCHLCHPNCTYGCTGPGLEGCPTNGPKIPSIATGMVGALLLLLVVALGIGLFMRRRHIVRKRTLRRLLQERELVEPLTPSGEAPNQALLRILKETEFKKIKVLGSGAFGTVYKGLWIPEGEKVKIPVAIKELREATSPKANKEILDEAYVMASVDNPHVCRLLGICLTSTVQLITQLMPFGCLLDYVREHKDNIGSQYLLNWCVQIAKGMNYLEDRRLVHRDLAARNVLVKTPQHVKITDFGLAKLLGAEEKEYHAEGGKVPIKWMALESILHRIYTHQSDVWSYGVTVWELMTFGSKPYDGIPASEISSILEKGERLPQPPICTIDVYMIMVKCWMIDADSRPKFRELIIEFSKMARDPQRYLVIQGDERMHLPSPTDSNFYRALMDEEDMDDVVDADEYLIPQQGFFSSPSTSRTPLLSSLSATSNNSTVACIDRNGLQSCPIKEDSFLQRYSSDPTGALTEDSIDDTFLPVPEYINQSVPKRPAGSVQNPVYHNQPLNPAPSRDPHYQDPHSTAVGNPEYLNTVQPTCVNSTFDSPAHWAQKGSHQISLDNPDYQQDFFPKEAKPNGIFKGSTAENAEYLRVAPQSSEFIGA
Result type: IC50 (nM)
Write the number in nM without appending the unit.

Inquiry: Entry under review: `C=CC(=O)Nc1cc(Nc2ncc(Cl)c(Nc3ccccc3C(=O)C(=O)N(C)C)n2)c(OC)cc1N1CCN(C)CC1` . Reported IC50?
Reply text: 503
